Cited source: patent US20170320919A1

Biological target: human polyclonal IgG (Gammanorm) (human)
Assay: SPR (Biacore), ligand amine-coupled to CM5 chip, 1 mg/ml IgG flowed; IgG binding signal left after 96 cycles of 100 mM NaOH, 10 min
valueType: Retained capacity after 96 cycles (%)

D3(N10Q, N45A)1 (designed binder) PKEEVTIKAQLIYADGKTQTAEFKGTFEEATAEAYRYADLLAKEAGKYTVDVADKGYTLNIKFAGKEKTPEE	48
D3(N10Q, N45A, N60Q)1 (designed binder) PKEEVTIKAQLIYADGKTQTAEFKGTFEEATAEAYRYADLLAKEAGKYTVDVADKGYTLQIKFAGKEKTPEE	59
D3(Q19A)1 (designed binder) PKEEVTIKANLIYADGKTATAEFKGTFEEATAEAYRYADLLAKENGKYTVDVADKGYTLNIKFAGKEKTPEE	28

P: D3(N45A)1 (designed binder) PKEEVTIKANLIYADGKTQTAEFKGTFEEATAEAYRYADLLAKEAGKYTVDVADKGYTLNIKFAGKEKTPEE
Q: Domain 2 (D2) (protein) AQVPKEEVTIKANLIYADGKTQTAEFKGTFEEAAAEAYRYADALKKDNGEYTVDVADKGYTLNIKFAGKEKTPEEC
Pick one: P or Q . Which has the bigger Retained capacity after 96 cycles (%) number? Answer by quoting the chosen item's label. P
